Recorded values, source patent US4960790A.

- assay-summary: Chemical stability in buffer or water
- Type: physicochemical
- study-conditions: 0.02 M Phosphate, pH 7.4, 25° C.
property-measured: half-life (h)
Report the value in h with no unit label.

Problem: Return value of half-life for input CC(=O)O[C@H]1C(=O)[C@]2(C)[C@@H](OC(=O)CN(C)C)C[C@H]3OC[C@@]3(OC(C)=O)[C@H]2[C@H](OC(=O)c2ccccc2)[C@]2(O)C[C@H](OC(=O)[C@H](O)[C@@H](NC(=O)c3ccccc3)c3ccccc3)C(C)=C1C2(C)C [Compound 8] , no commentary.
Solution: 33.8

====

- assay-summary: Plasma stability, dog plasma
- Type: in vitro ADME
- study-conditions: dog plasma (20 μg/mL), 37° C.
property-measured: half-life

Problem: Recall and state the measured half-life for CC(=O)O[C@H]1C(=O)[C@@]2(C)[C@H]([C@H](OC(=O)c3ccccc3)[C@]3(O)C[C@H](OC(=O)[C@H](OC(=O)CN(C)C)[C@@H](NC(=O)c4ccccc4)c4ccccc4)C(C)=C1C3(C)C)[C@]1(OC(C)=O)CO[C@@H]1C[C@@H]2O .
Solution: 2.03 h

====

- assay-summary: Chemical stability in buffer or water
- Format: physicochemical
- study-conditions: water (2 mg/mL), pH 3.8, 37° C.
property-measured: half-life (h)
Report only the number, with the unit h understood.

Problem: Using the record for CC(=O)O[C@H]1C(=O)[C@@]2(C)[C@H]([C@H](OC(=O)c3ccccc3)[C@]3(O)C[C@H](OC(=O)[C@H](OC(=O)CN(C)C)[C@@H](NC(=O)c4ccccc4)c4ccccc4)C(C)=C1C3(C)C)[C@]1(OC(C)=O)CO[C@@H]1C[C@@H]2O [Compound 2] , state its measured half-life.
Solution: 89.8

====

Recorded half-life, one value per entry.
- assay-summary: Plasma stability, human plasma
- Format: in vitro ADME
- study-conditions: human plasma (20 μg/mL), 37° C.

compound-structure	half-life
CC(=O)O[C@H]1C(=O)[C@]2(C)[C@@H](OC(=O)CN(C)C)C[C@H]3OC[C@@]3(OC(C)=O)[C@H]2[C@H](OC(=O)c2ccccc2)[C@]2(O)C[C@H](OC(=O)[C@H](O)[C@@H](NC(=O)c3ccccc3)c3ccccc3)C(C)=C1C2(C)C	27.7 h
CC(=O)O[C@H]1C(=O)[C@]2(C)[C@@H](OC(=O)[C@H](C)N)C[C@H]3OC[C@@]3(OC(C)=O)[C@H]2[C@H](OC(=O)c2ccccc2)[C@]2(O)C[C@H](OC(=O)[C@H](O)[C@@H](NC(=O)c3ccccc3)c3ccccc3)C(C)=C1C2(C)C	11.9 h

Problem: Please look at this molecule and report its half-life: CC(=O)O[C@H]1C(=O)[C@@]2(C)[C@H]([C@H](OC(=O)c3ccccc3)[C@]3(O)C[C@H](OC(=O)[C@H](OC(=O)CN(C)C)[C@@H](NC(=O)c4ccccc4)c4ccccc4)C(C)=C1C3(C)C)[C@]1(OC(C)=O)CO[C@@H]1C[C@@H]2O
Solution: 3.31 h

====

- assay-summary: Solubility
- Type: physicochemical
- study-conditions: read-out: Solubility
Reported solubility values for the following compounds.

Please review the entries below; each comes with its answer.
compound	solubility
CC(=O)O[C@H]1C(=O)[C@]2(C)[C@@H](OC(=O)CN(C)C)C[C@H]3OC[C@@]3(OC(C)=O)[C@H]2[C@H](OC(=O)c2ccccc2)[C@]2(O)C[C@H](OC(=O)[C@H](O)[C@@H](NC(=O)c3ccccc3)c3ccccc3)C(C)=C1C2(C)C [Compound 8]	> 2000 µg/mL
CC(=O)O[C@H]1C(=O)[C@]2(C)[C@@H](OC(=O)CN(C)C)C[C@H]3OC[C@@]3(OC(C)=O)[C@H]2[C@H](OC(=O)c2ccccc2)[C@]2(O)C[C@H](OC(=O)[C@H](OC(=O)CN(C)C)[C@@H](NC(=O)c3ccccc3)c3ccccc3)C(C)=C1C2(C)C	> 10000 µg/mL

Then there is this compound:
Problem: Tell me its solubility given CC(=O)O[C@H]1C(=O)[C@]2(C)[C@@H](OC(=O)[C@H](C)N)C[C@H]3OC[C@@]3(OC(C)=O)[C@H]2[C@H](OC(=O)c2ccccc2)[C@]2(O)C[C@H](OC(=O)[C@H](O)[C@@H](NC(=O)c3ccccc3)c3ccccc3)C(C)=C1C2(C)C as the entry.
Solution: > 2000 µg/mL

====

- assay-summary: Chemical stability in buffer or water
- Assay type: physicochemical
- study-conditions: 0.02 M Acetate (0.1 mg/mL), pH 4.5, 25° C.
property-measured: half-life

Problem: Check the records and state half-life for CC(=O)O[C@H]1C(=O)[C@@]2(C)[C@H]([C@H](OC(=O)c3ccccc3)[C@]3(O)C[C@H](OC(=O)[C@H](OC(=O)CN(C)C)[C@@H](NC(=O)c4ccccc4)c4ccccc4)C(C)=C1C3(C)C)[C@]1(OC(C)=O)CO[C@@H]1C[C@@H]2O
Solution: 55.4 h

====

- assay-summary: Chemical stability in buffer or water
- Type: physicochemical
- study-conditions: 0.02 M Acetate, 0.01 mg/mL, pH 3.5, 25° C.
property-measured: half-life
Please format your answer as a value with the unit trailing.

Problem: Please list half-life recorded for the molecule CCN(CC)CCC(=O)O[C@@H](C(=O)O[C@H]1C[C@@]2(O)[C@@H](OC(=O)c3ccccc3)[C@@H]3[C@]4(OC(C)=O)CO[C@@H]4C[C@H](O)[C@@]3(C)C(=O)[C@H](OC(C)=O)C(=C1C)C2(C)C)[C@@H](NC(=O)c1ccccc1)c1ccccc1 [Compound 3]
Solution: 18.3 days

====

Collected half-life values appear next to each entry.
- assay-summary: Chemical stability in buffer or water
- Type: physicochemical
- study-conditions: 0.02 M acetate, pH 4.5, 25° C.

compound-structure	result
CCN(CC)CCC(=O)O[C@@H](C(=O)O[C@H]1C[C@@]2(O)[C@@H](OC(=O)c3ccccc3)[C@@H]3[C@]4(OC(C)=O)CO[C@@H]4C[C@H](O)[C@@]3(C)C(=O)[C@H](OC(C)=O)C(=C1C)C2(C)C)[C@@H](NC(=O)c1ccccc1)c1ccccc1	12.7 days

# input for lookup
Problem: Could you please provide reported half-life for CC(=O)O[C@H]1C(=O)[C@]2(C)[C@@H](OC(=O)CN(C)C)C[C@H]3OC[C@@]3(OC(C)=O)[C@H]2[C@H](OC(=O)c2ccccc2)[C@]2(O)C[C@H](OC(=O)[C@H](O)[C@@H](NC(=O)c3ccccc3)c3ccccc3)C(C)=C1C2(C)C ? Thanks!
Solution: 71.6 days
